Test system: 439559-082-T-J2-PDC spheroid viability
measurement_notes: Anticancer human tumor 439559-082-T-J2-PDC patient-derived colon adenocarcinoma cell line growth inhibition [POLQ]
experimental_conditions: curve of first compound; second compound 3.16 µM; spheroids with HUVEC and MSC
pIC50: −log10 of the molar value.
A collection of compounds and their measured pIC50

// worked examples, pIC50 included
>  <compound>
CNCc1ccc(-c2[nH]c3cc(F)cc4c3c2CCNC4=O)cc1 + Nc1ccc(C#CCN(C(=O)Cc2ncc(C(F)(F)F)cc2C(F)(F)F)c2ccc(F)cc2)nn1

>  <pIC50>
< 5.00

$$$$
>  <compound>
CCc1cc2c(N3CCc4c(cc(Cn5ccnc5)cc4-c4cn(C)nc4C(F)(F)F)C3=O)ccnc2c(OC)n1 + COC1C(OC(N)=O)C(O)C(Oc2ccc3c(O)c(NC(=O)c4ccc(O)c(CC=C(C)C)c4)c(=O)oc3c2C)OC1(C)C

>  <pIC50>
< 5.00

$$$$
>  <compound>
CC(C)n1c(=O)n(C)c2cnc3cc(F)c(-c4ccc(OCCCN5CCCCC5)nc4)cc3c21 + Cc1cccc(N(C)C(=O)C2C(O)CCN2c2nc(C)cc(C(F)(F)F)c2C#N)c1

>  <pIC50>
< 5.00

$$$$
>  <compound>
CC1COCCN1c1cc(-c2ccnn2C)c2ccnc(-c3ccn[nH]3)c2n1 (stereo not given) + Nc1ccc(C#CCN(C(=O)Cc2ncc(C(F)(F)F)cc2C(F)(F)F)c2ccc(F)cc2)nn1

>  <pIC50>
6.50

$$$$

Alright, here's another compound for you.
Exercise: Tell me its pIC50 on 439559-082-T-J2-PDC spheroid viability: COc1cccc2c1C(=O)c1c(O)c3c(c(O)c1C2=O)CC(O)(C(=O)CO)CC3OC1CC(N)C(O)C(C)O1 (stereo not given) + Nc1ccc(C#CCN(C(=O)Cc2ncc(C(F)(F)F)cc2C(F)(F)F)c2ccc(F)cc2)nn1
Solution: < 5.00

* * *

System: 439559-082-T-J2-PDC spheroid viability
measurement_notes: Anticancer human tumor 439559-082-T-J2-PDC cell line growth inhibition [POLQ];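 note: spheroids exposed to compounds for seven days before readout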;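 for viability, T/C: 100% = DMSO vehicle control viability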
experimental_conditions: second compound 0.1 µM; first compound 3.16 µM; stronger effect = lower value; spheroids with HUVEC and MSC
Protocol: Multicellular complex tumor spheroid response to Polymerase (POL) inhibitors (novobiocin, ART-558, RP6685) in combination with a variety of drugs and investigational agents in selected tumor cell lines The POL inhibitors (novobiocin, ART-558, and RP6685) were evaluated both individually and in combination with standard of care and investigational anticancer small molecules within a complex spheroid model of solid tumors. . […]
A collection of compounds and their measured viability, T/C
Give the number; % is assumed, so skip it.

>  <compound>
C#Cc1c(F)ccc2cc(O)cc(-c3ncc4c(N5CC6CCC(C5)N6)nc(OCC56CCCN5CC(F)C6)nc4c3F)c12 (stereo not given) + Cc1cccc(N(C)C(=O)C2C(O)CCN2c2nc(C)cc(C(F)(F)F)c2C#N)c1

>  <reported_result>
59.2

$$$$
>  <compound>
CC1COCCN1c1cc(C2(S(C)(=N)=O)CC2)nc(-c2ccnc3[nH]ccc23)n1 (stereo not given) + Nc1ccc(C#CCN(C(=O)Cc2ncc(C(F)(F)F)cc2C(F)(F)F)c2ccc(F)cc2)nn1

>  <reported_result>
84.1

$$$$
>  <compound>
CNCc1ccc(-c2[nH]c3cc(F)cc4c3c2CCNC4=O)cc1 + Nc1ccc(C#CCN(C(=O)Cc2ncc(C(F)(F)F)cc2C(F)(F)F)c2ccc(F)cc2)nn1

>  <reported_result>
102

$$$$
>  <compound>
COc1cc2cc(C(=O)CCC(=O)O)sc2cc1OC + Nc1ccc(C#CCN(C(=O)Cc2ncc(C(F)(F)F)cc2C(F)(F)F)c2ccc(F)cc2)nn1

>  <reported_result>
93

$$$$

Alright, here's another compound for you.
Exercise: Read off the recorded viability, T/C for O=C(Nc1ccc(O)c(NS(=O)(=O)c2ccc(F)cc2)c1)c1ccc(-c2ccccc2)cc1 + Nc1ccc(C#CCN(C(=O)Cc2ncc(C(F)(F)F)cc2C(F)(F)F)c2ccc(F)cc2)nn1
Solution: 111
